Catalogue of binders with associated MIC in HAI
# assay-system: CooD, tip adhesin of CS1 fimbriae on wild type ETEC strain WS1974A (Escherichia coli (ETEC) strain WS1974A)
# protocol: cell-based or functional assay

[[record]]
binder = "anti-CfaE mouse mAb P5C7 (antibody, V domains shown) VH: QIQLVQSGPELKKPGETVKISCKASGYTFTNYGMNWVKQAPGKGLKWMGWINTYTGEPTYTDDFKGRFAFSLETSASTAYLQINSLKTEDTATYFCARMEYGNYENAMDSWGQGTSVTVSS VL: DTVMTQSHKFMSTSVGDRVSITCKASQDVSTAVVWYQQKPGQSPKLLIYSASYRYTGVPDRFTGSGSGTDFTFTISSVQAEDLAVYYCLQHFNIPRTFGGGTKLEIK"
value_measured = "> 250 µg/mL"

[[record]]
binder = "anti-CsbD mouse mAb P7C2 (antibody, V domains shown) VH: EVKLEESGGGLVQPGGSMKLSCAASGFTFSDAWMDWVRQSPEKGLEWVGKIRSEINDHATYYAESVKGRFTISRDDSKSGVYLQMNNLRAEDTGIYYCARDGYYGAMDYWGQGTSVTVSS VL: DVQITQSPSYLAASPGETITINCRSNKSISRYLAWYQEKPGKTNKLLIYSGSTLQSGIPSRFSGSGSNTDFTLTISSLEPEDFAMYYCQQHNEYPYTFGSGTKLEIK"
value_measured = "4 µg/mL"


MIC in HAI for anti-CfaE mouse mAb P1F9 (antibody, V domains shown) VH: QVQLQQPGAELVKPGASVKLSCKASGYTFTSYWMHWVRQRPGQGLDWIGEIDPSDSYINYNQKFKGKATLTVDKSSSTAYMQLSSLTSEDSAVYYCGRKSLGVSVLAYWGQGTPVTVSA VL: DIVMTQSHKFMSTSVGDRVSISCTASQDVNAAVAWYQQKPGQSPKLLIYWASTRHTGVPDRFTGSGSGTDYTLTISSVQAEDLALYYCQQHYSTPLTFGAGTKLELK ?
> 250 µg/mL
